- system-name: human TLR8 (Homo sapiens, UniProt Q9NR97)
- Sequence (Q9NR97 27-1041): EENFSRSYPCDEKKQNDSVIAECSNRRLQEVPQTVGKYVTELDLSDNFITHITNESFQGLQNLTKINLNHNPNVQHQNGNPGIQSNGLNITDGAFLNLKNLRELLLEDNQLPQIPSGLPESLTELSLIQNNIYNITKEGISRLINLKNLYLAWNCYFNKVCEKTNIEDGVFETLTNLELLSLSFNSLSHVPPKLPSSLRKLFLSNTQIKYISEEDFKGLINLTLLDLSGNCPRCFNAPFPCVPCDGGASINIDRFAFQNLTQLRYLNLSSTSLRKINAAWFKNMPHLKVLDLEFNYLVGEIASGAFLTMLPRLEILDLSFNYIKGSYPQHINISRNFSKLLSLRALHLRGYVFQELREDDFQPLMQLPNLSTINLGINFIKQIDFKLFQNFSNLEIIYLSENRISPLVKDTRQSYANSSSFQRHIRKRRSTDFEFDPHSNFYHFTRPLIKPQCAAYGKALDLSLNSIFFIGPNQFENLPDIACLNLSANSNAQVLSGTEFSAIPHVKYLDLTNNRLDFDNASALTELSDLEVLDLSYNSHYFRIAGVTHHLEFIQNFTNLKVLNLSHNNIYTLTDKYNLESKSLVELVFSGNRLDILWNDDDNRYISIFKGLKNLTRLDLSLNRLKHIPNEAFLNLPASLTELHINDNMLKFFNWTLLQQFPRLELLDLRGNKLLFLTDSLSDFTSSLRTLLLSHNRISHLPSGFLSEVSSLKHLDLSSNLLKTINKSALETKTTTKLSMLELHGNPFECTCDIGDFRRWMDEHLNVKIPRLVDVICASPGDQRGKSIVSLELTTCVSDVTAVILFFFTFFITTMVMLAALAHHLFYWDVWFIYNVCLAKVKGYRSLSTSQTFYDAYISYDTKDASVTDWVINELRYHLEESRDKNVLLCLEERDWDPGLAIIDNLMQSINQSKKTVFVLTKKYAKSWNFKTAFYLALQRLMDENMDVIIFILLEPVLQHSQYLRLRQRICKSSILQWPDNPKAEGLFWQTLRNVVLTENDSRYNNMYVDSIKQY
- test-details: TLR8 inhibition reporter assay (HEK-Blue SEAP reporter, R848 stimulation)
- protocol-conditions: HEK-Blue cells overexpressing human TLR8, SEAP reporter, R848 15.9 μM, 22 hour incubation
measurement-kind: IC50 (µM)

molecule="Cc1c(-c2[nH]c3ccc(C4CCNCC4)cc3c2C(C)C)ccc(=O)n1C [Example 6]" measure_unit=µM measurement=0.0133
molecule="COc1c(C)c(-c2[nH]c3ccc(C4CCN(C(=O)CN(C)C)CC4)cc3c2C(C)C)cn(C)c1=O [Example 276]" measure_unit=µM measurement=0.0802

I. Cc1nc(-c2[nH]c3ccc(C4CCN(C5COC5)CC4)cc3c2C(C)C)cn(C)c1=O [Example 186]
II. CC(C)c1c(-c2ccc(=O)n(C)c2)[nH]c2ccc(C3CCN(C4COC4)CC3)cc12 [Example 179]
Name the one with the greater IC50 value, either I or II as given. Lab note: record the label of whichever item you select. I
(I: 0.0755 µM, II: 0.0288 µM)
